# system under test: T1, cyno FcRn/b2M (cyno, UniProt Q8SPV9 24-297; Q8SPW0 21-119, biotinylated)
# T1 construct: bought recombinant biotinylated protein (Immunitrack ITF05 or ACRO FCM-C82W5); also called cFcRn; cFcRn/cb2M
# T1 sequence (Q8SPV9 24-297 limits assumed, chain 1 of 2): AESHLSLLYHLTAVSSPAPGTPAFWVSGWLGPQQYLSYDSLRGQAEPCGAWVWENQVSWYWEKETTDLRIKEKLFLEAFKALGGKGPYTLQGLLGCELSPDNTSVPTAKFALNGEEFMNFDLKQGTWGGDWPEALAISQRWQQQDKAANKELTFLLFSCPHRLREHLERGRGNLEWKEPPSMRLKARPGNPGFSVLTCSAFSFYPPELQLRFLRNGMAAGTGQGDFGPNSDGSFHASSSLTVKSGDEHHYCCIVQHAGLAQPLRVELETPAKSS
# T1 sequence (Q8SPW0 21-119 limits assumed, chain 2 of 2): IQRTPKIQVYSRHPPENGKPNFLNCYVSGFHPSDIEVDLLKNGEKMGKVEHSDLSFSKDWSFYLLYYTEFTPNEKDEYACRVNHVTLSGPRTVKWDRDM
# procedure details: SPR off-rate; pH 7.4 vs pH 6.0;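 note: surface plasmon resonance with diluted periplasmic extracts flowed over ligand surfaces, 120 s association and 600–3600 s dissociation at 25 °C, running buffer containing 150 mM NaCl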
Here the recorded kd ratio pH 7.4/6.0 is given for each entry.
Just the number.

Please review the following examples before continuing.
>  <binder>
T0263018B11 G26M (VHH, name in Kabat numbering, FLAG3-His6 tagged) VHH: EVQLVESGGGVVQPGGSLRLSCAASMFTFSSYAMYWVRQAPGKGLEWVSAISSGGGSTDYADSVKGRFTISRDNSKNTLYLQMNSLRPEDTALYYCAADTLYTSLTWYSYWGQGTLVTVSS

>  <quantity>
kd ratio pH 7.4/6.0

>  <observed result>
349

$$$$
>  <binder>
T0263018B11 Y32S (VHH, name in Kabat numbering, FLAG3-His6 tagged) VHH: EVQLVESGGGVVQPGGSLRLSCAASGFTFSSSAMYWVRQAPGKGLEWVSAISSGGGSTDYADSVKGRFTISRDNSKNTLYLQMNSLRPEDTALYYCAADTLYTSLTWYSYWGQGTLVTVSS

>  <quantity>
kd ratio pH 7.4/6.0

>  <observed result>
52

$$$$

// lookup kd ratio pH 7.4/6.0 for T0263018B11 S52P (VHH, name in Kabat numbering, FLAG3-His6 tagged) VHH: EVQLVESGGGVVQPGGSLRLSCAASGFTFSSYAMYWVRQAPGKGLEWVSAIPSGGGSTDYADSVKGRFTISRDNSKNTLYLQMNSLRPEDTALYYCAADTLYTSLTWYSYWGQGTLVTVSS
37
